measurement.target: T1, recombinant mouse neuropilin-1 (C-6His, #C11R; NRP-1) (mouse, UniProt P97333 22-856)
T1 sequence (looked up): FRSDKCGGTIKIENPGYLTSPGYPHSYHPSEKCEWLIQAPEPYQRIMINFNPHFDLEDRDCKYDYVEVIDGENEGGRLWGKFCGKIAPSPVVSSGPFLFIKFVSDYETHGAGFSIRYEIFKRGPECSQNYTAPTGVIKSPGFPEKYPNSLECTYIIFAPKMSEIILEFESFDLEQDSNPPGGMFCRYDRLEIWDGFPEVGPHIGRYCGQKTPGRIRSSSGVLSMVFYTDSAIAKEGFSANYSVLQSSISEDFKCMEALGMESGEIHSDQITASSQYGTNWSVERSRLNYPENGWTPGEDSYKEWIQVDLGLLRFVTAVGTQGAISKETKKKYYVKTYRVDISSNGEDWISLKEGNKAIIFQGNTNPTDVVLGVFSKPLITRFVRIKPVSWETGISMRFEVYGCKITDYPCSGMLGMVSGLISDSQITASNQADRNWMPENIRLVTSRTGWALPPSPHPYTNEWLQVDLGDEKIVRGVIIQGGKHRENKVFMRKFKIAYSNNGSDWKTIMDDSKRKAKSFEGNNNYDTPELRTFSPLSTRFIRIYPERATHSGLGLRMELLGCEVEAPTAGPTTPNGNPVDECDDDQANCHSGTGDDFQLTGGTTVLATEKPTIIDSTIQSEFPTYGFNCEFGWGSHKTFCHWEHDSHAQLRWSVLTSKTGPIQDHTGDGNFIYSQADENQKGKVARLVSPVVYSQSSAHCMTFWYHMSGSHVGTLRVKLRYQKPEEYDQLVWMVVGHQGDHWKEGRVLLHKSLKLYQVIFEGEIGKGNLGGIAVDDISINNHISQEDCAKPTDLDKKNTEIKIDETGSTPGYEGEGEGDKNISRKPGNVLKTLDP
assay.comment: SPR
quantity: pKd
When answering, recall that pKd equals minus log10 of the concentration in mol/L, and write that number alone.

For reference, reported pKd for CGNKRTR [cancer homing peptide (CHP, CGNKRTR), free peptide] stands at 5.19

Just for reference, paper PMC11933685 is where these values come from.
